Reported ED values are given for each entry in this list.
# Test system: Rattus norvegicus
# experiment description: Tested in vivo for anti-vasopressor potency injected intraperitoneally in phenoxybenzamine-treated rats under urethane anesthesia
# Type: functional
Starred links: 1 amine or outer side, 2 acyl side, 3 side chain; linkers in the order of their positions; H or OH if unused. Positions of bridges follow the written chain, without caps; N, C: chain ends. Non-standard residues stand in square brackets, D forms with d. Residues, ends and D or L forms follow the SMILES beside them. *: point of attachment. X1 = O=C(CC1(S[*:2])CCCCC1)[*:1]; iPr = CC(C)*

molecule	ED (nM/kg)
COc1ccc(C[C@@H]2NC(=O)CC3(CCCCC3)SSC[C@@H](C(=O)N3CCC[C@H]3C(=O)N[C@@H](CCCN=C(N)N)C(=O)NCC(N)=O)NC(=O)[C@H](CC(N)=O)NC(=O)[C@H](C(C)C)NC(=O)[C@H](Cc3ccccc3)NC2=O)cc1 (Y(Me)FVNCPRG-NH2; linker N-5 via X1)	0.29
COc1ccc(C[C@@H]2NC(=O)CC3(CCCCC3)SSC[C@@H](C(=O)N3CCC[C@H]3C(=O)N[C@H](CCCN=C(N)N)C(=O)NCC(N)=O)NC(=O)[C@H](CC(N)=O)NC(=O)[C@H](C(C)C)NC(=O)[C@H](Cc3ccccc3)NC2=O)cc1 (Y(Me)FVNCP[dR]G-NH2; linker N-5 via X1)	0.28
CCOc1ccc(C[C@@H]2NC(=O)CC3(CCCCC3)SSC[C@@H](C(=O)N3CCC[C@H]3C(=O)N[C@H](CCCN=C(N)N)C(=O)NCC(N)=O)NC(=O)[C@H](CC(N)=O)NC(=O)[C@H](C(C)C)NC(=O)[C@H](Cc3ccccc3)NC2=O)cc1 (Y(Et)FVNCP[dR]G-NH2; linker N-5 via X1)	0.34
CCOc1ccc(C[C@@H]2NC(=O)CC3(CCCCC3)SSC[C@@H](C(=O)N3CCC[C@H]3C(=O)N[C@@H](CCCN=C(N)N)C(=O)NCC(N)=O)NC(=O)[C@H](CC(N)=O)NC(=O)[C@H](C(C)C)NC(=O)[C@H](Cc3ccccc3)NC2=O)cc1 (Y(Et)FVNCPRG-NH2; linker N-5 via X1)	0.49
CCCOc1ccc(C[C@@H]2NC(=O)CC3(CCCCC3)SSC[C@@H](C(=O)N3CCC[C@H]3C(=O)N[C@@H](CCCN=C(N)N)C(=O)NCC(N)=O)NC(=O)[C@H](CC(N)=O)NC(=O)[C@H](C(C)C)NC(=O)[C@H](Cc3ccccc3)NC2=O)cc1	0.4
CC(C)Oc1ccc(C[C@@H]2NC(=O)CC3(CCCCC3)SSC[C@@H](C(=O)N3CCC[C@H]3C(=O)N[C@@H](CCCN=C(N)N)C(=O)NCC(N)=O)NC(=O)[C@H](CC(N)=O)NC(=O)[C@H](C(C)C)NC(=O)[C@H](Cc3ccccc3)NC2=O)cc1 (Y(iPr)FVNCPRG-NH2; linker N-5 via X1)	0.31
CC(C)Oc1ccc(C[C@@H]2NC(=O)CC3(CCCCC3)SSC[C@@H](C(=O)N3CCC[C@H]3C(=O)N[C@H](CCCN=C(N)N)C(=O)NCC(N)=O)NC(=O)[C@H](CC(N)=O)NC(=O)[C@H](C(C)C)NC(=O)[C@H](Cc3ccccc3)NC2=O)cc1 (Y(iPr)FVNCP[dR]G-NH2; linker N-5 via X1)	0.28
CCCOc1ccc(C[C@@H]2NC(=O)CC3(CCCCC3)SSC[C@@H](C(=O)N3CCC[C@H]3C(=O)N[C@H](CCCN=C(N)N)C(=O)NCC(N)=O)NC(=O)[C@H](CC(N)=O)NC(=O)[C@H](C(C)C)NC(=O)[C@H](Cc3ccccc3)NC2=O)cc1	1.1
